experimental.target: L-lactate dehydrogenase (Plasmodium falciparum (isolate CDC / Honduras)) (UniProt Q27743)
Sequence (Q27743 whole entry, looked up): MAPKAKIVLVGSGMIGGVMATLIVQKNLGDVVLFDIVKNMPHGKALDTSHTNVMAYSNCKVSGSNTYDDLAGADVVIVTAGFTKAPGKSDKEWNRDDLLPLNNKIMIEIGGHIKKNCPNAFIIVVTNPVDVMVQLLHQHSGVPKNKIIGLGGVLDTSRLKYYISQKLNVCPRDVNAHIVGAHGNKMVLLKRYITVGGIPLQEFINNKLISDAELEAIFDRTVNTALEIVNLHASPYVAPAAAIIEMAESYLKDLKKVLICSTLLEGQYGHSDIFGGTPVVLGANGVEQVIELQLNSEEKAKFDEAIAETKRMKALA
assay.overview: PfLDH activity inhibition – cell lysate, 3D7 strain, counter-screen for P. falciparum growth inhibition project (AID 2304);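 also: 0% = vehicle and 100% = reference inhibitor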
experimental.context: P. falciparum 3D7 crude extract, LDH APAD/NBT absorbance; at 2 µM; active compounds read high
measured.metric: inhibition (%)

1) Cc1ccc(O)c(CN2CCCC(COC(c3ccc(F)cc3)c3ccc(F)cc3)C2)c1 (stereo not given) :: 0
2) CC(=O)c1cccc2cc(C(=O)NC3CCC(CCN4CCc5ccc(C#N)cc5C4)CC3)[nH]c12 (stereo not given) :: -4
3) COc1cc(-c2ccccc2)ccc1C(=O)Nc1ccc2c(c1)N(C)CCC2 :: -4
4) CC(=O)Nc1ccc(C#Cc2ccc(-c3c(C)[nH]c(C)c(Cl)c3=O)cc2)cc1 :: -7
5) CCOC(=O)c1ccc(COc2ccc(C)nc2)cc1 :: -8
6) Cc1cc(CN2CC[C@H](NC(=O)c3ccc(Cl)c(Cl)c3)C2)ccc1OCCN1CCNCC1 :: -1
7) FC(F)(F)c1ccccc1OCc1cc(-c2ccncc2)c(COc2ccccc2C(F)(F)F)cc1C1=CCNCC1 :: -2
8) COc1cc(NCCCNCC2c3ccccc3Oc3ccccc32)nc2ccccc12 :: -9
9) COc1ccc(Cc2nc(N=C(N)Nc3ccccc3)ccc2OC)cc1 :: 2
10) CCCC(=O)NC(c1ccc(C)cc1)c1ccc2cccnc2c1O (stereo not given) :: -4
